Biological target: T1, human glucose-dependent insulinotropic polypeptide receptor (GIPR), expressed on CHO-K1 cells (human, UniProt P48546 22-466)
T1 sequence (looked up): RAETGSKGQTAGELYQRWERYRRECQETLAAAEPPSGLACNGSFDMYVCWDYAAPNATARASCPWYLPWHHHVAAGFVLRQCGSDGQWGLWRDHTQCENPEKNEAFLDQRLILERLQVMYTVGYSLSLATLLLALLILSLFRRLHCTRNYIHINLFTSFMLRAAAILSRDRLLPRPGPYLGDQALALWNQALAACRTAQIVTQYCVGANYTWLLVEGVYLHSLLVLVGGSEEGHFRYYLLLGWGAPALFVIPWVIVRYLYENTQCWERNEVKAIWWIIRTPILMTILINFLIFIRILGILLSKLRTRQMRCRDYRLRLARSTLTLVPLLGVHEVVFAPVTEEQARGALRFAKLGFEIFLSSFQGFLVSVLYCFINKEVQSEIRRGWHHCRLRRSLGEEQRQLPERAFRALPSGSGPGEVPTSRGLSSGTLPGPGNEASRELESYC
Test: cell-based or functional assay
Numbered stars: 1 amine (or outer) side, 2 acyl side, 3 side chain; on linkers, the order of the positions; unused ones are H or OH. Square brackets hold non-standard residues; d marks the D form. Side chains are listed from the residue outwards. Ends that are not written are not given here. * marks the point of attachment. C18 = C18 fatty acid (C16-C22 fatty acids conjugated via γGlu/8-amino-3,6-dioxaoctanoic acid spacers); Biotin = O=C1N[C@H]2[C@H](CS[C@H]2CCCCC(=O)*)N1; γGlu = O=C(O)[C@H](CCC(=O)[*:2])N[*:1]; AEEA = NCCOCCOCC(=O)O; Aib = CC(C)(N)C(=O)O
reported.metric: Relative % to native ligand (%)
Reply numerically in %, unit not repeated.

// below: answered binders
>  <binder>
Y[Aib]QGTFTSDYSK([AEEA-AEEA-γGlu-C18])LLDYMMQ[Aib]DFVQYLLEGGPSSGAPPPSK-NH2 (not fully specified (residue 40)) [SEQ ID NO. 92]

>  <Relative % to native ligand, %>
120

$$$$
>  <binder>
Y[Aib]QGTFTSDYSK([AEEA-AEEA-γGlu-C18])LLDKMMQRDFVQWLLEGGPSSGAPPPS-NH2 (not fully specified (residue 16); printed as YAibQGT FTSDY SK*LLD B*MMQR DFVQW LLEGG PSSGA PPPS) [SEQ ID NO. 86]

>  <Relative % to native ligand, %>
575

$$$$

Relative % to native ligand recorded for this binder, Y[Aib]QGTFTSDYSK([AEEA-AEEA-γGlu-C18])YLDYMMQRDFVK(Biotin)WLLEGGPSSGAPPPS (ends and bridges not checked) [SEQ ID NO. 97] , is 123

Relative % to native ligand recorded for this binder, Y[Aib]QGTFTSDYSK([AEEA-AEEA-γGlu-C18])LLDYMMQ[Aib]DFVQWLLEGGPSSGAPPPS-NH2 [SEQ ID NO. 84] , is 335
